Items are presented alongside their recorded abundance fitness.
B1: Ventral anterior homeobox 1, residues 102 to 157; numbered along this chain, Q5SQQ9 (parent)
chain: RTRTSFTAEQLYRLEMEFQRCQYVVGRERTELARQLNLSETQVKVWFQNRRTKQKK

- Variants of: B1
- Measurement Notes: abundance fitness (aPCA) (normalised: wild type 0, dead -1); higher = more abundant; growth selection in yeast, the domain comes from the species named
- Applied Conditions: Homo sapiens

{"Variant": "E9V", "abundance fitness": -0.157}
{"Variant": "L11R", "abundance fitness": -0.61}
{"Variant": "E28I", "abundance fitness": -0.657}
{"Variant": "V43R", "abundance fitness": -0.793}
{"Variant": "Q22A", "abundance fitness": -0.033}
{"Variant": "T52A", "abundance fitness": -0.11}
{"Variant": "R34W", "abundance fitness": -0.42}
{"Variant": "Q42P", "abundance fitness": -0.824}
{"Variant": "F18W", "abundance fitness": -0.181}
{"Variant": "T2C", "abundance fitness": -1.01}
{"Variant": "E28R", "abundance fitness": -0.596}
